Measured GRinf accompanies every entry in the list below.
Tested on: Mycobacterium tuberculosis Erdman (autoluminescent)
protocol summary: GRinf, maximum normalised growth rate inhibition (three-drug combination) (unitless (-1 to 1)); higher = less effect (negative = killing)
run conditions: in vitro model: cholesterol-high 0.2 mM; time point: terminal (~4-5 doublings, model-specific)
A bare number is all that is needed in reply.

# compound, study system, observed value
data = [
    ("CC(C)/N=c1\\cc2n(-c3ccc(Cl)cc3)c3ccccc3nc-2cc1Nc1ccc(Cl)cc1 [clofazimine] + NNC(=O)c1ccncc1 [isoniazid] + CO[C@H]1/C=C/O[C@@]2(C)Oc3c(C)c(O)c4c(O)c(c(/C=N/N5CCN(C6CCCC6)CC5)c(O)c4c3C2=O)NC(=O)/C(C)=C\\C=C\\[C@H](C)[C@H](O)[C@@H](C)[C@@H](O)[C@@H](C)[C@H](OC(C)=O)[C@@H]1C [rifapentine]", "Mycobacterium tuberculosis Erdman (autoluminescent)", -0.743),
    ("CC(C)/N=c1\\cc2n(-c3ccc(Cl)cc3)c3ccccc3nc-2cc1Nc1ccc(Cl)cc1 [clofazimine] + CC(=O)NC[C@H]1CN(c2ccc(N3CCOCC3)c(F)c2)C(=O)O1 [linezolid] + CO[C@H]1/C=C/O[C@@]2(C)Oc3c(C)c(O)c4c(O)c(c(/C=N/N5CCN(C6CCCC6)CC5)c(O)c4c3C2=O)NC(=O)/C(C)=C\\C=C\\[C@H](C)[C@H](O)[C@@H](C)[C@@H](O)[C@@H](C)[C@H](OC(C)=O)[C@@H]1C [rifapentine]", "Mycobacterium tuberculosis Erdman (autoluminescent)", -0.975),
]

What does the record list as GRinf for COc1nc2ccc(Br)cc2cc1[C@@H](c1ccccc1)[C@@](O)(CCN(C)C)c1cccc2ccccc12 [bedaquiline] + NNC(=O)c1ccncc1 [isoniazid] + O=[N+]([O-])c1cn2c(n1)OC[C@@H](OCc1ccc(OC(F)(F)F)cc1)C2 [pretomanid] ? -0.535

###

Tested on: Mycobacterium tuberculosis Erdman (autoluminescent)
protocol summary: total FIC90 (Loewe) at 90% inhibition, three-drug combination (log2); higher = more antagonistic
run conditions: in vitro model: dormancy (butyrate + nitrate, low O2); time point: terminal (~4-5 doublings, model-specific)
measured quantity: total FIC90
Give your answer as a number; write no unit.

# compound, total FIC90
measured = [
    ("COc1nc2ccc(Br)cc2cc1[C@@H](c1ccccc1)[C@@](O)(CCN(C)C)c1cccc2ccccc12 [bedaquiline] + NC(=O)c1cnccn1 [pyrazinamide] + CO[C@H]1/C=C/O[C@@]2(C)Oc3c(C)c(O)c4c(O)c(c(/C=N/N5CCN(C6CCCC6)CC5)c(O)c4c3C2=O)NC(=O)/C(C)=C\\C=C\\[C@H](C)[C@H](O)[C@@H](C)[C@@H](O)[C@@H](C)[C@H](OC(C)=O)[C@@H]1C [rifapentine]", -0.227),
]

Entry under review: CC(=O)NC[C@H]1CN(c2ccc(N3CCOCC3)c(F)c2)C(=O)O1 [linezolid] + COc1c(N2C[C@@H]3CCCN[C@@H]3C2)c(F)cc2c(=O)c(C(=O)O)cn(C3CC3)c12 [moxifloxacin] + CO[C@H]1/C=C/O[C@@]2(C)Oc3c(C)c(O)c4c(O)c(c(/C=N/N5CCN(C6CCCC6)CC5)c(O)c4c3C2=O)NC(=O)/C(C)=C\C=C\[C@H](C)[C@H](O)[C@@H](C)[C@@H](O)[C@@H](C)[C@H](OC(C)=O)[C@@H]1C [rifapentine] . Reported total FIC90? 1.02

So what does the record say about total FIC90 for NNC(=O)c1ccncc1 [isoniazid] + COc1c(N2C[C@@H]3CCCN[C@@H]3C2)c(F)cc2c(=O)c(C(=O)O)cn(C3CC3)c12 [moxifloxacin] + O=[N+]([O-])c1cn2c(n1)OC[C@@H](OCc1ccc(OC(F)(F)F)cc1)C2 [pretomanid] ? 2.6

Could you tell me which total FIC90 is on file for NNC(=O)c1ccncc1 [isoniazid] + CC(=O)NC[C@H]1CN(c2ccc(N3CCOCC3)c(F)c2)C(=O)O1 [linezolid] + O=[N+]([O-])c1cn2c(n1)OC[C@@H](OCc1ccc(OC(F)(F)F)cc1)C2 [pretomanid] ? 4.02

Please report the recorded total FIC90 for NNC(=O)c1ccncc1 [isoniazid] + O=[N+]([O-])c1cn2c(n1)OC[C@@H](OCc1ccc(OC(F)(F)F)cc1)C2 [pretomanid] + CO[C@H]1/C=C/O[C@@]2(C)Oc3c(C)c(O)c4c(O)c(c(/C=N/N5CCN(C)CC5)c(O)c4c3C2=O)NC(=O)/C(C)=C\C=C\[C@H](C)[C@H](O)[C@@H](C)[C@@H](O)[C@@H](C)[C@H](OC(C)=O)[C@@H]1C [rifampicin] . 2.12

Fill in the blank: the reported total FIC90 of CC[C@@H](CO)NCCN[C@@H](CC)CO [ethambutol] + O=[N+]([O-])c1cn2c(n1)OC[C@@H](OCc1ccc(OC(F)(F)F)cc1)C2 [pretomanid] + CO[C@H]1/C=C/O[C@@]2(C)Oc3c(C)c(O)c4c(O)c(c(/C=N/N5CCN(C6CCCC6)CC5)c(O)c4c3C2=O)NC(=O)/C(C)=C\C=C\[C@H](C)[C@H](O)[C@@H](C)[C@@H](O)[C@@H](C)[C@H](OC(C)=O)[C@@H]1C [rifapentine] is ____. 0.383

src = the supplement of paper PMC8617591
